Species: Rattus norvegicus
Test: Open TG-GATES - Regimen: Daily Repeat
Type: toxicity, organism-based, Sprague-Dawley
Set-up: regimen Daily Repeat, gender Male, age 6 weeks
Settings: in vivo, po, 300 mg/kg, […], tissue Kidney, route gavage, dose level Middle, time 14 day
KIDNEY_TOTAL values, listed per item

{"compound.structure.string": "O=C(OC[C@H]1O[C@@H](OC(=O)c2cc(O)c(O)c(OC(=O)c3cc(O)c(O)c(O)c3)c2)[C@H](OC(=O)c2cc(O)c(O)c(OC(=O)c3cc(O)c(O)c(O)c3)c2)[C@@H](OC(=O)c2cc(O)c(O)c(OC(=O)c3cc(O)c(O)c(O)c3)c2)[C@@H]1OC(=O)c1cc(O)c(O)c(OC(=O)c2cc(O)c(O)c(O)c2)c1)c1cc(O)c(O)c(OC(=O)c2cc(O)c(O)c(O)c2)c1", "value.unit": "g", "KIDNEY_TOTAL": 2.7}
{"compound.structure.string": "COC(=O)C1=C(C)NC(C)=C(C(=O)OC)C1c1ccccc1[N+](=O)[O-]", "value.unit": "g", "KIDNEY_TOTAL": 2.3}
{"compound.structure.string": "CN/C(=N/CCSCc1nc[nH]c1C)NC#N", "value.unit": "g", "KIDNEY_TOTAL": 2.4}
{"compound.structure.string": "CNC(=C[N+](=O)[O-])NCCSCc1ccc(CN(C)C)o1", "value.unit": "g", "KIDNEY_TOTAL": 2.4}
{"compound.structure.string": "CCOc1ccc(NC(C)=O)cc1", "value.unit": "g", "KIDNEY_TOTAL": 2.5}
{"compound.structure.string": "Cc1nnc2n1-c1ccc(Cl)cc1C(c1ccccc1Cl)=NC2", "value.unit": "g", "KIDNEY_TOTAL": 2.4}

* * *

Organism: Rattus norvegicus
Assay: Open TG-GATES - Regimen: Single
Assay type: toxicity, organism-based, Sprague-Dawley
Design: regimen Single, gender Male, age 6 weeks
Conditions: in vivo, po, 0 mg/kg, 3 h, tissue Plasma, route gavage, dose level Control
We label by threshold. Values of A/G strictly beneath 1 are TRUE. Values of 1 and up are FALSE.

{"compound": "Cc1nnc2n1-c1ccc(Cl)cc1C(c1ccccc1Cl)=NC2 [TRIAZOLAM]", "category": "TRUE"}
{"compound": "CN(C)CCC(c1ccc(Cl)cc1)c1ccccn1 (stereo not drawn) [CHLORPHENIRAMINE]", "category": "TRUE"}
{"compound": "Brc1ccccc1 [BROMOBENZENE]", "category": "TRUE"}
{"compound": "CNC(=C[N+](=O)[O-])NCCSCc1ccc(CN(C)C)o1 [RANITIDINE]", "category": "FALSE"}
{"compound": "CC(C)NNC(=O)c1ccncc1 [IPRONIAZID]", "category": "FALSE"}
{"compound": "Nc1c2c(nc3ccccc13)CCCC2 [TACRINE]", "category": "FALSE"}
{"compound": "CN1C(=O)CCS(=O)(=O)C1c1ccc(Cl)cc1 (stereo not drawn) [CHLORMEZANONE]", "category": "TRUE"}

* * *

Species: Rattus norvegicus
Assay: Open TG-GATES - Regimen: Single
Type: toxicity, organism-based, Sprague-Dawley
Set-up: regimen Single, gender Male, age 6 weeks
Conditions: in vivo, po, 100 mg/kg, 3 h, tissue Plasma, route gavage, dose level Low
quantity.measured: TC (mg/dL)

{"compound": "Cc1nnc2n1-c1ccc(Cl)cc1C(c1ccccc1Cl)=NC2 [TRIAZOLAM]", "quantity.measured": "TC", "measurement": 75.8}
{"compound": "O=C(OC[C@H]1O[C@@H](OC(=O)c2cc(O)c(O)c(OC(=O)c3cc(O)c(O)c(O)c3)c2)[C@H](OC(=O)c2cc(O)c(O)c(OC(=O)c3cc(O)c(O)c(O)c3)c2)[C@@H](OC(=O)c2cc(O)c(O)c(OC(=O)c3cc(O)c(O)c(O)c3)c2)[C@@H]1OC(=O)c1cc(O)c(O)c(OC(=O)c2cc(O)c(O)c(O)c2)c1)c1cc(O)c(O)c(OC(=O)c2cc(O)c(O)c(O)c2)c1 [TANNIC ACID]", "quantity.measured": "TC", "measurement": 68.6}
{"compound": "CN/C(=N/CCSCc1nc[nH]c1C)NC#N [CIMETIDINE]", "quantity.measured": "TC", "measurement": 75.2}
{"compound": "CNC(=C[N+](=O)[O-])NCCSCc1ccc(CN(C)C)o1 [RANITIDINE]", "quantity.measured": "TC", "measurement": 73.2}
{"compound": "COC(=O)C1=C(C)NC(C)=C(C(=O)OC)C1c1ccccc1[N+](=O)[O-] [NIFEDIPINE]", "quantity.measured": "TC", "measurement": 76.2}
